target: His-STK16 2–306 (Mus musculus, UniProt O88697)
Sequence (O88697 2-305 limits assumed): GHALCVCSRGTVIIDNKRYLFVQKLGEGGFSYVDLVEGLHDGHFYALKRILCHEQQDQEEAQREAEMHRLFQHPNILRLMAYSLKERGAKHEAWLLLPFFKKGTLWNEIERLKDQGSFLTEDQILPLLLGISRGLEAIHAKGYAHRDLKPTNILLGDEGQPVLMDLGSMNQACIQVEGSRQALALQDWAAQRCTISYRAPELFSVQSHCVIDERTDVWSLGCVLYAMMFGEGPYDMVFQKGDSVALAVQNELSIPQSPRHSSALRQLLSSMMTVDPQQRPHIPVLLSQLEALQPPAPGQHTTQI
endpoint-name: pIC50
pIC50 field: float, defined as -log10 of concentration (mol/L).

Ask: Lab request: please report pIC50 under test system His-STK16 2–306 (Mus musculus, UniProt O88697) for Nc1ccc2c(c1)nc1c3cc(O)cc4cccc(c(=O)n21)c43 [TIM-098a]
Reply: 5.15

* * *

target: AAK1 catalytic domain (25–396) in transfected COS-7 cells (Homo sapiens); construct: transfected with 0.2 µg of pME-His-AAK1 25–396; test: AAK1 activity in transfected COS-7 cells (pThr156 of GST-AP2µ2 145–162, immunoblot); conditions: COS-7 cells expressing AAK1 25–396 and GST-AP2µ2 (145–162), 6 h treatment
Sequence (Q2M2I8 25-396): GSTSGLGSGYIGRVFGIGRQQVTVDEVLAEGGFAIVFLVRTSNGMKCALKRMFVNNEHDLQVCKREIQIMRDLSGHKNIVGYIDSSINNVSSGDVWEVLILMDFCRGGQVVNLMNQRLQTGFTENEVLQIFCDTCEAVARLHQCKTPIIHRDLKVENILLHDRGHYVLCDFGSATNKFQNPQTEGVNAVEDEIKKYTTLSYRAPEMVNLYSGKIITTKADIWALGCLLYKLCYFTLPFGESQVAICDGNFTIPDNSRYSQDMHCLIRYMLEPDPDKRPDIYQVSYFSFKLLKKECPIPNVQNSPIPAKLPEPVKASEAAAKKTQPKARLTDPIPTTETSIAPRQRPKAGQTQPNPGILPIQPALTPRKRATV
endpoint-name: IC50 (nM)
I only need the number, in nM, no unit after it.

Ask: May I ask what IC50 has been recorded for Nc1ccc2c(c1)nc1c3cc(O)cc4cccc(c(=O)n21)c43 [TIM-098a] ?
Reply: 870

* * *

Target: His-GAK 2–370 (Mus musculus, UniProt Q99KY4)
Sequence (Q99KY4 2-370): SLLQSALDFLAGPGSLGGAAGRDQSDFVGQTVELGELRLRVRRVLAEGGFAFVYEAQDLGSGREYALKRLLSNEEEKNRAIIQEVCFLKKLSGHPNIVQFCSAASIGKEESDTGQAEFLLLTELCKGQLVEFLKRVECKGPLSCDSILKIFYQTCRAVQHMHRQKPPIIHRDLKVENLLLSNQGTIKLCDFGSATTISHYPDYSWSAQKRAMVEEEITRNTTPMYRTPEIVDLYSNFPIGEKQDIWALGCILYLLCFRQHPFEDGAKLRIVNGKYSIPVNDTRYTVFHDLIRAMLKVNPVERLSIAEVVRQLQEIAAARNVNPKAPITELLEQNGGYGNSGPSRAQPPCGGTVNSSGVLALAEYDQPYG
endpoint-name: IC50
Please state the number and follow it with the unit.

Ask: May I ask what IC50 has been recorded for Nc1ccc2c(c1)nc1c3cc(O)cc4cccc(c(=O)n21)c43 [TIM-098a] ?
Reply: 1040 nM

* * *

target: His-tagged AAK1 catalytic domain (25–396) (Homo sapiens)
Sequence (Q2M2I8 25-396): as the sequence (Q2M2I8 25-396) above
endpoint-name: IC50 (nM)
I only need the number, in nM, no unit after it.

Ask: Lab request: please report IC50 under test system His-tagged AAK1 catalytic domain (25–396) (Homo sapiens) for Nc1ccc2c(c1)nc1c3cc(O)cc4cccc(c(=O)n21)c43 [TIM-098a]
Reply: 240
